These measurements were taken from PubChem BioAssay AID1159580.

Test: chemical genetic growth profiling, strain panel (AID 1159580);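 also: tested at 20 µM; growth read once vehicle control cultures reached saturation at 30 °C; 1 = growth at the plate median or of vehicle wells; lower values mean less growth of the strain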
Conditions: S. cerevisiae deletion strains, growth OD, locus YEL003W, strain gim4, stronger effect = lower value
Among all 5,500 compounds or so, about 2,000 (36%) were called active. Another 18% or so got no clear call; they are omitted. The list shows a part of the results.
Property Measured: normalized growth
// print number alone

As a guide, the following entries are already answered.
Compound	normalized growth
CC[N+]1(C)CCCC(OC(=O)C(O)(c2ccccc2)c2ccccc2)C1 (centres undefined)	1.02
CC(C)=CCc1c2c(c(O)c3c(=O)c(O)c(-c4ccccc4)oc13)C=CC(C)(C)O2	0.683
CC(=O)Oc1c(-c2ccccc2)oc2c(CC=C(C)C)c3c(c(OC(C)=O)c2c1=O)C=CC(C)(C)O3	1.03

### Prompt # query: normalized growth of entry O=C(O)/C=C(\CC(=O)O)C(=O)O
### Response 1

### Prompt # query: normalized growth of entry COc1cc([C@@H]2c3cc4c(cc3[C@H](O)[C@H]3COC(=O)[C@@H]23)OCO4)cc(OC)c1OC
### Response 1.02

### Prompt # query: normalized growth of entry CCCN1C[C@H](CSC)C[C@@H]2c3cccc4[nH]cc(c34)C[C@H]21
### Response 1.01

### Prompt # query: normalized growth of entry COc1cc([C@@H]2c3cc4c(cc3C(O[C@@H]3O[C@@H]5CO[C@@H](c6cccs6)OC5[C@H](O)[C@H]3O)C3COC(=O)[C@@H]32)OCO4)cc(OC)c1O (some centres undefined)
### Response 0.969

### Prompt # query: normalized growth of entry CC(=O)O.CC(=O)O.[Cd]
### Response 0.681

### Prompt # query: normalized growth of entry Cc1cc2cc3c(C)cc(=O)oc3c(C)c2o1
### Response 0.972

----------
Assay: chemical genetic growth profiling, strain panel (AID 1159580)
Conditions: S. cerevisiae deletion strains, growth OD, locus YLR085C, strain ARP6, stronger effect = lower value
Out of some 5,500 compounds screened, about 2,000 (36%) were called active. Inconclusive results (about 18%) are left out. The list shows a part of the results.
Property Measured: normalized growth
// print number alone

As a guide, the following entries are already answered.
>>> print(df.to_string())
                                   compound  readout_value
0           Cc1cc(C(F)(F)F)c(C#N)c(=O)[nH]1           1.03
1  CCCCCn1c(Sc2ncc([N+](=O)[O-])s2)n[nH]c1=O         0.0989
2  FC(F)(F)c1ccc(-c2nc(-c3ccc4c(c3)OCCCO4)cs2)cc1            1.1
3                      CSC(=NCc1cccnc1)NC#N           1.02
4            O=C1CCCc2c1c1ccccc1n2Cc1ccccc1          0.889
5      Cc1ccc(COc2ccc(C)nc2[N+](=O)[O-])cc1          0.295

### Prompt # query: normalized growth of entry C=CCn1c(Sc2ncc([N+](=O)[O-])s2)n[nH]c1=O
### Response 0.359

### Prompt # query: normalized growth of entry COC(=O)c1cn(Cc2ccc(C(F)(F)F)cc2)cc(F)c1=O
### Response 1.09

### Prompt # query: normalized growth of entry Cc1cc(Br)c(OCC(=O)NN)c2c1CCC2
### Response 0.947

### Prompt # query: normalized growth of entry O=C1NC(c2ccccc2Cl)Nc2ccccc21 (configuration not stated)
### Response 0.951

### Prompt # query: normalized growth of entry O=C(NNC(=O)c1ccccc1[N+](=O)[O-])c1ccc(Cl)cc1
### Response 1.05

### Prompt # query: normalized growth of entry CN1CNc2c(c(=O)n(C)c(=O)n2C)C1
### Response 0.979

### Prompt # query: normalized growth of entry CCOC(=O)c1c(SC)[nH]c2c(C(F)(F)F)cccc2c1=O
### Response 0.977

### Prompt # query: normalized growth of entry Cc1ccc(OCC(=O)NN)c2c1CCC2
### Response 1.01

### Prompt # query: normalized growth of entry Cc1c(C)c(C)c(CO)c(C)c1C
### Response 1.06

### Prompt # query: normalized growth of entry Clc1cccc(-c2csc(Nc3cccnc3)n2)c1
### Response 0.839

----------
Test: chemical genetic growth profiling, strain panel (AID 1159580);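 also: tested at 20 µM; growth read once vehicle control cultures reached saturation at 30 °C; 1 = growth at the plate median or of vehicle wells; lower values mean less growth of the strain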
Conditions: S. cerevisiae deletion strains, growth OD, locus YPL106C, strain sse1, stronger effect = lower value
Out of some 5,500 compounds screened, about 2,000 (36%) were called active. Another 18% or so got no clear call; they are omitted. The list shows a part of the results.
Property Measured: normalized growth
// print number alone

As a guide, the following entries are already answered.
                                   molecule  readout_value
0  CC[N+]1(C)CCCC(OC(=O)C(O)(c2ccccc2)c2ccccc2)C1 (stereo not given)           1.02
1  CC(=O)[C@H]1CCC2C3CC=C4C[C@@H](OC(=O)CCC(=O)O)CC[C@]4(C)C3CC[C@@]21C (stereo not given in full)              1
2  COc1cc2c(cc1OC)-c1cc3ccc(OC)c(OC)c3c[n+]1CC2          0.971
3    CCN(CC)CCNc1ccc(CO)c2sc3ccccc3c(=O)c12           1.02
4  Cn1nnnc1SCC1=C(C(=O)O)N2C(=O)C(NC(=O)C(O)c3ccccc3)C2SC1 (stereo not given)          0.958
5  CCC(CCC(C)[C@H]1CCC2C3CC=C4C[C@@H](O)CC[C@]4(C)C3CC[C@@]21C)C(C)C (stereo not given in full)           1.01
6               CCCCCCCCCCCCCCCC[n+]1ccccc1         0.0881
7      COc1c(O)cc2c(-c3ccccc3)cc(=O)oc2c1OC          0.983

### Prompt # query: normalized growth of entry O=C(O)c1cn(-c2ccc(F)cc2)c2cc(N3CCNCC3)c(F)cc2c1=O
### Response 0.895

### Prompt # query: normalized growth of entry COc1cc2cc[n+]3cc4c(OC)c(OC)ccc4cc3c2cc1OC
### Response 0.953

----------
Assay: chemical genetic growth profiling, strain panel (AID 1159580);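 also: tested at 20 µM; growth read once vehicle control cultures reached saturation at 30 °C; 1 = growth at the plate median or of vehicle wells; lower values mean less growth of the strain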
Settings: S. cerevisiae deletion strains, growth OD, locus YGR135W, strain pre9, stronger effect = lower value
In all, about 5,500 compounds went through this assay and about 2,000 (36%) were called active. About 18% were inconclusive and are not listed. This is one part of the list.
Measured normalized growth values are reported for all entries that follow.
// print number alone

### Prompt # query: normalized growth of entry C[C@@H]1CC[C@@]2(OC1)OC1C(O)C3C4CC[C@H]5C[C@H](O[C@@H]6O[C@H](CO)[C@H](O[C@@H]7O[C@H](CO)[C@@H](O)[C@H](O[C@@H]8OC[C@@H](O)[C@H](O)[C@H]8O)[C@H]7O[C@@H]7O[C@H](CO)[C@H](O)[C@H](O[C@@H]8O[C@H](CO)[C@@H](O)[C@H](O)[C@H]8O)[C@H]7O)[C@H](O)[C@H]6O)[C@H](O)C[C@]5(C)C4CC[C@]3(C)C1[C@@H]2C (stereo partly specified)
### Response 0.0583

### Prompt # query: normalized growth of entry O=c1oc2ccccc2c(O)c1Cc1c(O)c2ccccc2oc1=O
### Response 0.959

### Prompt # query: normalized growth of entry O=C(O)c1nc2cc(Cl)c(Cl)cc2[nH]c1=O
### Response 1.02

### Prompt # query: normalized growth of entry O=c1c2ccccc2oc2ccc(O)cc12
### Response 0.856

### Prompt # query: normalized growth of entry CC(C)(Oc1ccc(Cl)cc1)C(=O)O
### Response 1.01

### Prompt # query: normalized growth of entry CC(=O)CC(c1ccccc1)c1c(O)c2ccccc2oc1=O (stereo unspecified)
### Response 1.02

### Prompt # query: normalized growth of entry NCC(=O)CCC(=O)O
### Response 0.982

### Prompt # query: normalized growth of entry Cn1c(=O)c2[nH]c(C3CCCC3)nc2n(C)c1=O
### Response 0.982

### Prompt # query: normalized growth of entry Cc1coc2ccccc2c1=O
### Response 1.01

### Prompt # query: normalized growth of entry O=c1[nH]c2cc(Cl)c(Cl)cc2[nH]c1=O
### Response 1.02

### Prompt # query: normalized growth of entry CC(=O)N(O)CCCCCNC(=O)CCC(=O)N(O)CCCCCNC(=O)CCC(=O)N(O)CCCCCN
### Response 0.994

----------
Experiment: chemical genetic growth profiling, strain panel (AID 1159580);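 also: tested at 20 µM; growth read once vehicle control cultures reached saturation at 30 °C; 1 = growth at the plate median or of vehicle wells; lower values mean less growth of the strain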
Details: S. cerevisiae deletion strains, growth OD, locus YER016W, strain bim1, stronger effect = lower value
Screen size: about 5,500 compounds; about 2,000 (36%) were called active. Inconclusive results (about 18%) are left out. The list shows a part of the results.
Rule: measured normalized growth below 1 gets yes (1); anything equal to or greater than 1 gets no (0).

Given Smiles	Assigned Category
CC(=O)Nc1ccc(OC(=O)c2ccccc2O)cc1	yes (1)
CC(C)(Oc1ccc(Cl)cc1)C(=O)O	no (0)

### Prompt Please determine if O=C1c2c(O)ccc(O)c2C(=O)c2c(NCCNCCO)ccc(NCCNCCO)c21 is below 1 in terms of normalized growth.
### Response yes (1)

### Prompt Please determine if C[n+]1cc2c3c(ccc2c2ccc4cc5c(cc4c21)OCO5)OCO3 is below 1 in terms of normalized growth.
### Response yes (1)

### Prompt Please determine if O=c1cc(-c2cccc(O)c2)oc2ccc(O)cc12 is below 1 in terms of normalized growth.
### Response yes (1)
